Entry source: patent US7745455B2

Test: Plasmatic 3TC levels in patients with or without ddC-boosted 3TC treatment
Type: in vivo, human
Details: human, in vivo, 3TC plasma levels 2 h post dose, individual HIV patients, one line per patient and date; 3TC with low dose ddC or without ddC
readout_name: concentration at 2 h (ng/mL)

[[record]]
structure_as_smiles = "Nc1ccn([C@@H]2CS[C@H](CO)O2)c(=O)n1"
readout_name = "concentration at 2 h"
unit_info = "ng/mL"
numeric_value = 700

